system: PPARg:RXRa 270nM:90nM, anti-RXR (NR concentration 270 nM, RXRa partner concentration 90 nM); experiment: PBM binding z-score (relative to random genomic background probes); higher = stronger binding; sequences stand for … in GC…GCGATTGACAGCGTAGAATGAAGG
Measure: PBM binding z-score
Quick one: just the number, no unit, thanks!

Worked set:
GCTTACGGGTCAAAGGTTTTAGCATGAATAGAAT : 7.88
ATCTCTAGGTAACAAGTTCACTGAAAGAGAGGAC : 2.9

Moving on to the next sequence.
Please supply the value of reported PBM binding z-score for the item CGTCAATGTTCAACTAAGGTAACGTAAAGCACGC
-0.0311

These data points were gathered from the supplement of paper PMC6555819.
